experimental-context: in n-pentanol, 328.15 K
quantity-kind: solubility (mole fraction)

[[record]]
smiles_entry = "COc1ccc(C(=O)O)cc1"
quantity_kind = "solubility (mole fraction)"
number = 0.0313


----------
experimental-context: in n-butanol, 283.15 K
quantity-kind: solubility (mole fraction)

[[record]]
smiles_entry = "COc1ccc(C(=O)O)cc1"
quantity_kind = "solubility (mole fraction)"
number = 0.00647


----------
experimental-context: in THF, 293.15 K
quantity-kind: solubility (mole fraction)

[[record]]
smiles_entry = "COc1ccc(C(=O)O)cc1"
number = 0.0562


----------
experimental-context: in n-butanol, 323.15 K
quantity-kind: solubility (mole fraction)

[[record]]
smiles_entry = "COc1ccc(C(=O)O)cc1"
quantity_kind = "solubility (mole fraction)"
number = 0.0255


----------
experimental-context: in ethyl formate, 328.15 K
quantity-kind: solubility (mole fraction)

[[record]]
smiles_entry = "COc1ccc(C(=O)O)cc1"
number = 0.0195


----------
experimental-context: in THF, 303.15 K
quantity-kind: solubility (mole fraction)

[[record]]
smiles_entry = "COc1ccc(C(=O)O)cc1"
number = 0.0671


----------
experimental-context: in ethyl formate, 323.15 K
quantity-kind: solubility (mole fraction)

[[record]]
smiles_entry = "COc1ccc(C(=O)O)cc1"
quantity_kind = "solubility (mole fraction)"
number = 0.0178


----------
experimental-context: in isopropyl acetate, 323.15 K
quantity-kind: solubility (mole fraction)

[[record]]
smiles_entry = "COc1ccc(C(=O)O)cc1"
number = 0.021


----------
experimental-context: in THF, 283.15 K
quantity-kind: solubility (mole fraction)

[[record]]
smiles_entry = "COc1ccc(C(=O)O)cc1"
quantity_kind = "solubility (mole fraction)"
number = 0.0483


----------
experimental-context: in cyclohexanone, 308.15 K
quantity-kind: solubility (mole fraction)

[[record]]
smiles_entry = "COc1ccc(C(=O)O)cc1"
number = 0.034


----------
experimental-context: in isobutanol, 283.15 K
quantity-kind: solubility (mole fraction)

[[record]]
smiles_entry = "COc1ccc(C(=O)O)cc1"
number = 0.00435


----------
experimental-context: in isopropyl acetate, 303.15 K
quantity-kind: solubility (mole fraction)

[[record]]
smiles_entry = "COc1ccc(C(=O)O)cc1"
result = 0.0116


----------
experimental-context: in isobutanol, 328.15 K
quantity-kind: solubility (mole fraction)

[[record]]
smiles_entry = "COc1ccc(C(=O)O)cc1"
number = 0.0288


----------
experimental-context: in toluene, 303.15 K
quantity-kind: solubility (mole fraction)

[[record]]
smiles_entry = "COc1ccc(C(=O)O)cc1"
quantity_kind = "solubility (mole fraction)"
number = 0.00196


----------
experimental-context: in n-propyl acetate, 328.15 K
quantity-kind: solubility (mole fraction)

[[record]]
smiles_entry = "COc1ccc(C(=O)O)cc1"
number = 0.0237


----------
experimental-context: in cyclohexanone, 288.15 K
quantity-kind: solubility (mole fraction)

[[record]]
smiles_entry = "COc1ccc(C(=O)O)cc1"
quantity_kind = "solubility (mole fraction)"
number = 0.0203


----------
experimental-context: in ethyl formate, 313.15 K
quantity-kind: solubility (mole fraction)

[[record]]
smiles_entry = "COc1ccc(C(=O)O)cc1"
number = 0.0135


----------
experimental-context: in 2-butanone, 313.15 K
quantity-kind: solubility (mole fraction)

[[record]]
smiles_entry = "COc1ccc(C(=O)O)cc1"
quantity_kind = "solubility (mole fraction)"
number = 0.0266


Values were extracted from BigSolDB 2.1.
